Test system: Vero E6 infected with SARS-CoV-2
assayComment: morphology score (similarity to uninfected cells); higher = more like uninfected cells
experimentalContext: 24 h
measurementKind: morphology score
Please reply with the number alone, leaving off any unit.

Which morphology score value is on record for CCOc1ccc2nc(SCCN3CCOCC3)[nH]c2c1 [afobazole] (10 µM) ? -0.0209

Which morphology score value is on record for C[N+]1(C)CCC(=C(c2ccccc2)c2ccccc2)CC1 [diphemanil] (10 µM) ? -0.00596

Which morphology score value is on record for C[C@]12CC/C(=N\OCCN)C[C@@H]1C(=O)C[C@@H]1[C@@H]2CC[C@]2(C)C(=O)CC[C@@H]12 [istaroxime] (0.833333 µM) ? 0.151

Which morphology score value is on record for CCOc1ccc(C[C@H]2NC(=O)CCSSC[C@@H](C(=O)N3CCC[C@H]3C(=O)N[C@@H](CCCN)C(=O)NCC(N)=O)NC(=O)[C@H](CC(N)=O)NC(=O)[C@H]([C@@H](C)O)NC(=O)[C@H]([C@@H](C)CC)NC2=O)cc1 [atosiban] (10 µM) ? 0.175

Which morphology score value is on record for CCc1cc2c(c(CC)n1)CCC(=O)N2Cc1ccc(-c2ccccc2-c2nnn[nH]2)cc1 (10 µM) ? 0.264

Which morphology score value is on record for CCOC(=O)[C@H](CCc1ccccc1)N[C@@H](C)C(=O)N1Cc2cc(OC)c(OC)cc2C[C@H]1C(=O)O [moexipril] (10 µM) ? 0.183

Which morphology score value is on record for N[C@@H](CS)C(=O)O [L-cysteine] (10 µM) ? 0.0349

Which morphology score value is on record for CCCCC/C=C\C/C=C\C/C=C\C/C=C\CCCC(=O)Nc1ccc(O)cc1 (10 µM) ? 0.0145
